Test system: U2OS
Test: Multiplex assay against U2OS
Type: toxicity, cell-based
Settings: human, 48 h, 1 µM, compound concentration 1 uM, replicate 2
Record t whenever Population Mitochondria Different-Phenotype (%) is at 20% or higher; record f when lower.

• CN(C)C(=O)/C(C#N)=C/c1ccc(-c2nc3cnc4[nH]ccc4c3n2C2CCCCC2)o1 = f
• COc1cccc([C@@H](C)NCCCc2ccccc2Cl)c1.Cl [TECALCET HYDROCHLORIDE] = f
• CN1CCCC(n2nc(Cc3ccc(Cl)cc3)c3ccccc3c2=O)CC1.Cl (configuration not stated) [AZELASTINE HYDROCHLORIDE] = t
• COc1cc(-n2cnc3cc(-c4ccc(Cl)cc4)sc3c2=O)ccc1OCCN1CCCC1 = t
• CN1CCN(c2ccc(OC(F)(F)F)c(Nc3ncc4c(n3)-c3c(c(C(N)=O)nn3CCO)CC4)c2)CC1 = t
• COc1ncc(-c2ccc3nccc(-c4ccnnc4)c3c2)cc1NS(=O)(=O)c1ccc(F)cc1F = t
• CC[C@H](C)C(=O)O[C@H]1C[C@@H](C)C=C2C=C[C@H](C)[C@H](CC[C@@H]3C[C@@H](O)CC(=O)O3)[C@H]21 = f
• Cn1cc(-c2[nH]c3cc(NC(=O)[C@H](N)C4CCCCC4)cc4c3c2C=NNC4=O)cn1 = f
• Cc1csc2c(N[C@@H](C)CN3CCN(S(=O)(=O)c4ccc(Cl)c(Cl)c4)CC3)ncnc12 = f
• CC(C)(O)CNc1ncc(-c2ccnc(Nc3ccnc(Cl)c3)n2)c(CC2CC2)n1 = t
• CN1CCN(CCOc2cc(OC3CCOCC3)c3c(Nc4c(Cl)ccc5c4OCO5)ncnc3c2)CC1 = f
• CC(C)NCC(O)COc1ccc(CCOCC2CC2)cc1.Cl (configuration not stated) [BETAXOLOL HYDROCHLORIDE] = f
• CNc1nc(NCc2ccc(NS(C)(=O)=O)cc2Cl)cc(-c2ccccn2)n1 = f
• Cc1cc(C)cc(-c2cnc3cc(Cl)c(-c4cccc(O)c4)cc3c2OCCCN)c1 = t
• O=C1NCN(c2ccccc2)C12CCN(CCCOc1ccc(F)cc1)CC2 [SPIRAMIDE] = f
• Cc1c(-c2ccc(O)cc2)n(Cc2ccc(OCCN3CCCCCC3)cc2)c2ccc(O)cc12 = f

====

Tested on: Fibroblast
Assay: Multiplex assay against human fibroblast
Format: toxicity, cell-based
Conditions: 12 h, 1 µM, compound concentration 1 uM, replicate 2
Record satisfied whenever Population Pyknosed Nuclei (%) is at 7% or higher; record not satisfied when lower.

• O=C1NCN(c2ccccc2)C12CCN(CCCOc1ccc(F)cc1)CC2 [SPIRAMIDE] = not satisfied
• CNc1nc(NCc2ccc(NS(C)(=O)=O)cc2Cl)cc(-c2ccccn2)n1 = not satisfied
• C=CC(=O)Nc1cc2c(Nc3ccc(F)c(Cl)c3)ncnc2cc1OCCCN1CCOCC1.Cl.Cl [CANERTINIB DIHYDROCHLORIDE] = not satisfied
• C[C@@]1(C(=O)Nc2ccc(F)nc2)CCCN1c1nc(Nc2cc(C3CC3)n[nH]2)c2cccn2n1 = satisfied
• Cn1cc(-c2[nH]c3cc(NC(=O)[C@H](N)C4CCCCC4)cc4c3c2C=NNC4=O)cn1 = satisfied
• NC(=O)Nc1cc(-c2cccc(F)c2)sc1C(=O)N[C@H]1CCCNC1 = satisfied
• Cc1nc(-c2cn3c(n2)-c2ccc(-c4cnn(C(C)(C)C(N)=O)c4)cc2OCC3)n(C(C)C)n1 = not satisfied
• COc1ncc(-c2ccc3nccc(-c4ccnnc4)c3c2)cc1NS(=O)(=O)c1ccc(F)cc1F = satisfied
• CC[C@H](C)C(=O)O[C@H]1C[C@@H](C)C=C2C=C[C@H](C)[C@H](CC[C@@H]3C[C@@H](O)CC(=O)O3)[C@H]21 = satisfied
• Cc1cc(C)cc(-c2cnc3cc(Cl)c(-c4cccc(O)c4)cc3c2OCCCN)c1 = satisfied
• CC(C)NCC(O)COc1ccc(CCOCC2CC2)cc1.Cl (stereo unspecified) [BETAXOLOL HYDROCHLORIDE] = not satisfied
• C=CC(=O)Nc1cccc(C(=O)Nc2ccc(Nc3cc(-c4[nH]c(SC)nc4C)ccn3)cc2)c1 = not satisfied
• Cc1nc(Nc2n[nH]c3c2CN(C(=O)N[C@H](CN(C)C)c2ccccc2)C3(C)C)c2sccc2n1 = satisfied
• Cc1[nH]c(/C=C2\C(=O)Nc3ccc(S(=O)(=O)N(C)c4cccc(Cl)c4)cc32)c(C)c1C(=O)N1CCN(C)CC1 = not satisfied
• C[C@@H](NCCCc1cccc(C(F)(F)F)c1)c1cccc2ccccc12.Cl [CINACALCET HYDROCHLORIDE] = satisfied
• Cc1csc2c(N[C@@H](C)CN3CCN(S(=O)(=O)c4ccc(Cl)c(Cl)c4)CC3)ncnc12 = satisfied
• COc1cc(-n2cnc3cc(-c4ccc(Cl)cc4)sc3c2=O)ccc1OCCN1CCCC1 = satisfied
• CN1CCN(CCOc2cc(OC3CCOCC3)c3c(Nc4c(Cl)ccc5c4OCO5)ncnc3c2)CC1 = satisfied

The origin of these recorded values is ChEMBL document CHEMBL4689842.
